// data source = ChEMBL document CHEMBL1137423

- Experimental Target: Enterobactin synthase component E (Escherichia coli K-12)
- Protocol Text: Binding affinity to EntE
- Assay Setup: read-out: Ki app
Reported Endpoint: Ki (µM)

I. O=C(NOP(=O)(O)OC[C@H]1O[C@@H](n2cnc3cncnc32)[C@H](O)[C@@H]1O)c1ccccc1
II. O=C(NOP(=O)(O)OC[C@H]1O[C@@H](n2cnc3cncnc32)[C@H](O)[C@@H]1O)c1ccccc1O
III. O=C(NOP(=O)(O)OC[C@H]1O[C@@H](n2cnc3cncnc32)[C@H](O)[C@@H]1O)c1cccc(O)c1O
Asked: Ranking request: Ki, max to min, items above. Write the labels, ordered according to the request.
Given back: I, II, III

###

- Experimental Target: Enterobactin synthase component E (Escherichia coli K-12)
- Sequence (P10378 whole entry): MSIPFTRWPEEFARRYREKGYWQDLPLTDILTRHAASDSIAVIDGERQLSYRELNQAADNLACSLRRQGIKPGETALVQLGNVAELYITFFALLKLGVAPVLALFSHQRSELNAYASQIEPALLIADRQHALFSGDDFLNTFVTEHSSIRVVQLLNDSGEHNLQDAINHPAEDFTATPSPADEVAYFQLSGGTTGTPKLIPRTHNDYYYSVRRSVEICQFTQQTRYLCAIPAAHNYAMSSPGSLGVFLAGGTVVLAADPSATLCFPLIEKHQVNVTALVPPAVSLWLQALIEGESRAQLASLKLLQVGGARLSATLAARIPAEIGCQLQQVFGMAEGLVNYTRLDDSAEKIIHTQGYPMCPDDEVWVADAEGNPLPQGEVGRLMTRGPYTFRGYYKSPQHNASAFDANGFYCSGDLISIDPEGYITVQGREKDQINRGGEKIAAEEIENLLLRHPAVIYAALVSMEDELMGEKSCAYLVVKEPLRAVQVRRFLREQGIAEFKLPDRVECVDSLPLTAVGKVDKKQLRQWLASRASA
- Protocol Text: Binding affinity to EntE corrected to substrate competition
Reported Endpoint: pKi
Remember the convention: pKi equals -log10 of concentration in molar.

The molecule listed as "O=C(NOP(=O)(O)OC[C@H]1O[C@@H](n2cnc3cncnc32)[C@H](O)[C@@H]1O)c1cccc(O)c1O" has a reported pKi of 8.35
